Target: Full length wild-type cereblon CRBN (Homo sapiens)
Construct: Full length wild-type cereblon CRBN (80.0 nM, 10 μL) was incubated in assay buffer
Sequence (Q96SW2 whole entry): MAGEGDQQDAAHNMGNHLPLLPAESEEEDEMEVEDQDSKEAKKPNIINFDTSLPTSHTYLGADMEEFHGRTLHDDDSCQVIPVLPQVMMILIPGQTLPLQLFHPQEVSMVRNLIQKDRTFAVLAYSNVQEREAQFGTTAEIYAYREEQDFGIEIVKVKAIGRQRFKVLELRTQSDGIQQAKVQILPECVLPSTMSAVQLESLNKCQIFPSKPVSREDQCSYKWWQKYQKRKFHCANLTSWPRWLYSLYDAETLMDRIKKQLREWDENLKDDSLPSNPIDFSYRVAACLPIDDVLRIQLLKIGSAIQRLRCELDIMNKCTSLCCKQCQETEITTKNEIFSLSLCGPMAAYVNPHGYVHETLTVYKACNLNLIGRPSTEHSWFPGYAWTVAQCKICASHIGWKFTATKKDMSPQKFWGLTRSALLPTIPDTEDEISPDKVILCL
Assay: Fluorescence polarization (FP) assay, cereblon binding
Settings: bounds stated in the text lists b2059-b2061; read-out: IC50 value
Reported IC50 values are given for each entry in this list.
measurement_name: IC50

INSERT INTO measurements (molecule, target, observed_result) VALUES
  ('Cc1c(F)cc(NC(=O)OCc2ccc3c(c2)C(=O)N(C2CCC(=O)NC2=O)C3)cc1CN1CCOCC1 (stereo not shown)', 'Full length wild-type cereblon CRBN (Homo sapiens)', '< 1.7 µM'),
  ('CCc1cc(NC(=O)OCc2ccc3c(c2)C(=O)N(C2CCC(=O)NC2=O)C3)sn1 (stereo not shown)', 'Full length wild-type cereblon CRBN (Homo sapiens)', '< 0.5 µM'),
  ('CN(C)C1CN(c2ccc(NC(=O)OCc3ccc4c(c3)C(=O)N(C3CCC(=O)NC3=O)C4)cn2)C1 (stereo not shown)', 'Full length wild-type cereblon CRBN (Homo sapiens)', '< 1.7 µM'),
  ('CN1CCN(c2ccc(NC(=O)OCc3ccc4c(c3)C(=O)N(C3CCC(=O)NC3=O)C4)cn2)CC1 (stereo not shown)', 'Full length wild-type cereblon CRBN (Homo sapiens)', '< 1.1 µM');
